The origin of these recorded values is paper PMC3235172.

Molecular target: NlugOBP3 (Nilaparvata lugens, UniProt B6E9U3)
Sequence (B6E9U3 entry or part of it): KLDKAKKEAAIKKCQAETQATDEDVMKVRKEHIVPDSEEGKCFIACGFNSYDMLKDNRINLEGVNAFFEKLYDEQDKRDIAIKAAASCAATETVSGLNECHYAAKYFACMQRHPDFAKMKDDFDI
Assay: Competitive fluorescence binding assay (1-NPN probe) with recombinant NlugOBP3
Conditions: displacement of 1-NPN; protein and 1-NPN at 2 µM; 50 mM Tris-HCl pH 7.4; read-out: OBP3 IC50
pIC50: −log10 of the molar value.
Observed property: pIC50

[P] C=CC(=C)CCC=C(C)C
[Q] CC/C=C\CCOC(C)=O [Ligand 22, (Z)-3-Hexenyl acetate]
Hey, which is lower on measured pIC50, P or Q ? The response must carry the label of the picked entry.
Q
(Q: 4.42, P: 5.00)
